Reference source for all entries: paper PMC6000670

biological target: yeast Hsp90-P661R (Saccharomyces cerevisiae, UniProt P02829, P661R); experiment: ITC binding to yeast Hsp90 mutant P661R
Measured attribute: Kd (µM)
Give just the number in µM; leave the unit off.

Would you kindly share the measured Kd for COC(=O)C1=C(CCN(C)C)N(C)C(CCN(C)C)=C(C(=O)OC)C1c1ccc(C(F)(F)F)cc1 [LA1011] ? 80.6

###

biological target: yeast Hsp90-ADP complex (Saccharomyces cerevisiae, UniProt P02829); assay: ITC binding to yeast Hsp90-ADP complex
Measured attribute: Kd (µM)
Give just the number in µM; leave the unit off.

Would you kindly share the measured Kd for `COC(=O)C1=C(CCN(C)C)N(C)C(CCN(C)C)=C(C(=O)OC)C1c1ccc(C(F)(F)F)cc1` ? 66.2

###

target: yeast Hsp90–AMPPNP complex (Saccharomyces cerevisiae, UniProt P02829); test: ITC binding to yeast Hsp90-AMPPNP complex
Sequence (P02829 whole entry, one chain of several): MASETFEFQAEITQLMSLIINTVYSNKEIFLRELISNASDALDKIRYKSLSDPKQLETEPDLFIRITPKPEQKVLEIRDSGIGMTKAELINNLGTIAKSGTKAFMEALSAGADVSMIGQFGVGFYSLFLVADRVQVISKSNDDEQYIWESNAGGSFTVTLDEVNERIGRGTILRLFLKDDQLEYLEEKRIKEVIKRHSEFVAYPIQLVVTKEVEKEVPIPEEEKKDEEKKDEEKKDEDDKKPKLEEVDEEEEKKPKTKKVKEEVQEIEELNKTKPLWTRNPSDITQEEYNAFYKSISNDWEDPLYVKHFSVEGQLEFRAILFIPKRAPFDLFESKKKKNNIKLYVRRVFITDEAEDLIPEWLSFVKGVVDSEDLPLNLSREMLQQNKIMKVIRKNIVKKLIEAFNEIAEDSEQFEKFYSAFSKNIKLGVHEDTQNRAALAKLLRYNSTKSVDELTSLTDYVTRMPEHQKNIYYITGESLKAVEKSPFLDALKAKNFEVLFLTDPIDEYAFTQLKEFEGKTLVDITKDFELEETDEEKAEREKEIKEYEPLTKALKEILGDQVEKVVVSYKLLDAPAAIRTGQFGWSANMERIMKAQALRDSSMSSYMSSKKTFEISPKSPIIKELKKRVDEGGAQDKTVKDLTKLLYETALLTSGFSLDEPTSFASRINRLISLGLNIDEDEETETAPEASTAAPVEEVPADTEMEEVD
Measured attribute: pKd
For clarity, pKd is expressed as the negative log10 of concentration in mol/L.

Would you kindly share the measured pKd for `COC(=O)C1=C(CCN(C)C)N(C)C(CCN(C)C)=C(C(=O)OC)C1c1ccc(C(F)(F)F)cc1` ? 4.18

###

target: Hsp90-AMPPNP-Sba1 complex (Saccharomyces cerevisiae, UniProt P02829); assay: ITC binding to Hsp90-AMPPNP-Sba1 complex
Sequence (P02829 whole entry): as the sequence (P02829 whole entry, one chain of several) above
Sequence (P28707 whole entry partner): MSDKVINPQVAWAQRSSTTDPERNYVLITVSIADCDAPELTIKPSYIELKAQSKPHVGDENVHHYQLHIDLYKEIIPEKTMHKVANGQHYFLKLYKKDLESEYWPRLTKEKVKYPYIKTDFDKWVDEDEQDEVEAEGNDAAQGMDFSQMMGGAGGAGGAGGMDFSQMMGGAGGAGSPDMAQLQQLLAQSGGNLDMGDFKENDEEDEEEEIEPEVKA
Measured attribute: Kd (µM)
Give just the number in µM; leave the unit off.

Quick check: Kd on Hsp90-AMPPNP-Sba1 complex (Saccharomyces cerevisiae, UniProt P02829), item COC(=O)C1=C(CCN(C)C)N(C)C(CCN(C)C)=C(C(=O)OC)C1c1ccc(C(F)(F)F)cc1 [LA1011] ? 23.1

###

Overview of reported pKd across a group of compounds:
target: yeast Hsp90^273−709 (Saccharomyces cerevisiae)
Sequence (P02829 273-709): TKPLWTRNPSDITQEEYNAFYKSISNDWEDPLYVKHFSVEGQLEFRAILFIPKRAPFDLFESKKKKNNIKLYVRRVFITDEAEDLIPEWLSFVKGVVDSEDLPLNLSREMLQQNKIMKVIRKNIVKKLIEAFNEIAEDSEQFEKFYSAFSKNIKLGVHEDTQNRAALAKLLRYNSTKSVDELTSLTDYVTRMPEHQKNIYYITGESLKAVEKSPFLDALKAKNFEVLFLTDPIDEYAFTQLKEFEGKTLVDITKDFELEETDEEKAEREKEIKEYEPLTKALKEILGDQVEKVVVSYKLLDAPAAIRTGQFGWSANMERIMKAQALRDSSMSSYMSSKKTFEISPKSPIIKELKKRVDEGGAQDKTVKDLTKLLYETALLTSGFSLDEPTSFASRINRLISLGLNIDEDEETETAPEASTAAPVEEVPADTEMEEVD
For clarity, pKd is expressed as the negative log10 of concentration in mol/L.

{"columns": ["Compound", "pKd"],
 "data": [
  ["COC(=O)C1=C(CCN(C)C)N(C)C(CCN(C)C)=C(C(=O)OC)C1c1cc(F)cc(F)c1 [LA1026]", 4.31]
]}

Quick check: pKd on yeast Hsp90^273−709 (Saccharomyces cerevisiae), item COC(=O)C1=C(CCN(C)C)N(C)C(CCN(C)C)=C(C(=O)OC)C1c1ccc(C(F)(F)F)cc1 [LA1011] ? 5.01

Quick check: pKd on yeast Hsp90^273−709 (Saccharomyces cerevisiae), item COC(=O)C1=C(C)N(C)C(CCN2CCOCC2)=C(C(=O)OC)C1c1ccc(C(F)(F)F)cc1 (stereo not drawn) [LA1014] ? 4.69

###

biological target: UniProtKB P08238
Sequence (P08238 whole entry): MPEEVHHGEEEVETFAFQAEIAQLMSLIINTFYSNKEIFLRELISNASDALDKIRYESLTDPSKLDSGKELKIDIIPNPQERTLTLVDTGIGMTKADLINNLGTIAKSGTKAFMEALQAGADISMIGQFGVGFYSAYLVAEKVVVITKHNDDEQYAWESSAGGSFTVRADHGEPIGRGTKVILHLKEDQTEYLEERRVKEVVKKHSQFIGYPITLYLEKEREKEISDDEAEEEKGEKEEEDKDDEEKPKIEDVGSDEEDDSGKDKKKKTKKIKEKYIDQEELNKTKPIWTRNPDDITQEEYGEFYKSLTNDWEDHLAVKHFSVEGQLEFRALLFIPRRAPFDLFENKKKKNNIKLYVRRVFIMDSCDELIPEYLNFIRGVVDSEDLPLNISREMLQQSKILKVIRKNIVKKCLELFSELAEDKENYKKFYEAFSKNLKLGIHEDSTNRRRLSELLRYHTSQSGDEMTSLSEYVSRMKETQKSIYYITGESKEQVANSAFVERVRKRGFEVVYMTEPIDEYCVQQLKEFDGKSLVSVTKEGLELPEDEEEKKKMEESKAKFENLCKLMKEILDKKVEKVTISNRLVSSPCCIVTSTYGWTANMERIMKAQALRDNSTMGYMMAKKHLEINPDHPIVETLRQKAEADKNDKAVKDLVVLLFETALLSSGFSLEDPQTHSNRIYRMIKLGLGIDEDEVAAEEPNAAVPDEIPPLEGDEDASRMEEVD
Measured attribute: pKd
For clarity, pKd is expressed as the negative log10 of concentration in mol/L.

Would you kindly share the measured pKd for `COC(=O)C1=C(CCN(C)C)N(C)C(CCN(C)C)=C(C(=O)OC)C1c1ccc(C(F)(F)F)cc1` ? 5.01

###

molecular target: human Hsp90α (Homo sapiens, UniProt P07900)
Measured attribute: Kd (µM)
Give just the number in µM; leave the unit off.

Would you kindly share the measured Kd for `COC(=O)C1=C(CCN(C)C)N(C)C(CCN(C)C)=C(C(=O)OC)C1c1ccc(C(F)(F)F)cc1` ? 3.8
